Origin of the recorded values: ChEMBL document CHEMBL5543122

Quick list: CLH per entry.
assay-explanation: Intrinsic clearance in human hepatocytes assessed per 10^4 cells at 1 uM measured upto 120 mins by UPLC-MS/MS analysis
Type: ADME, cell-based, Hepatocyte
condition: 2 h
Quick reminder: number only, in µL/min, skip the unit.

CNC(=O)c1ncn2c1CC[C@H](c1c(F)ccc(NS(=O)(=O)c3cc(F)cnc3OC)c1F)C2    7.8
COc1ncc(Cl)cc1S(=O)(=O)Nc1ccc(F)c(-c2ccc3c(-c4ncc[nH]4)n[nH]c3c2F)c1F    4.4
CNC(=O)c1n[nH]c2c(F)c(-c3c(F)ccc(NS(=O)(=O)c4cc(Cl)cnc4OC)c3F)ccc12    5.8
CNC(=O)c1ncn2cc(-c3c(F)ccc(NS(=O)(=O)c4cc(Cl)cnc4OC)c3F)ccc12    9

Measured CLH, CNC(=O)c1ncn2cc(-c3c(F)ccc(NS(=O)(=O)c4cc(Cl)cnc4OC)c3F)ncc12 : 4.7

Measured CLH, COc1ncc(Cl)cc1S(=O)(=O)Nc1ccc(F)c(-c2ccc3c(-c4ncc[nH]4)ncn3c2)c1F : 2.8

Measured CLH, CNC(=O)c1ncn2nc(-c3c(F)ccc(NS(=O)(=O)c4cc(Cl)cnc4OC)c3F)ccc12 : 3.8
